The following compounds are shown together with reported Transmission density Before Bleaching R values.
# PROCEDURE_SUMMARY: transmission densities of image-receiving components before and after bleaching with aqueous 1 N KOH
# Format: physicochemical
# CONDITION_SET: 22 mgs./ft.^2
# Excerpt: Using appropriate solvents, samples of the dye compounds prepared in Examples 12, 13, 24, 26 and 39 were incorporated into the image-receiving layer 3 of image-receiving components comprising the structure set forth below by mixing a solution of each compound with a solution of the graft copolymer and coating this mixture on top of the timing layer to complete each of the image-receiving components. A transparent 4 mil polyethylene terephthalate film base coated with, in succession: […]
ENDPOINT_NAME: Transmission density Before Bleaching R

SAMPLE_SMILES	RESULT
COC1=CC(=C(c2ccc(N3CCOCC3)cc2)c2ccccc2S(=O)(=O)N(C)C(=O)OCCS(C)(=O)=O)C=C(OC)C1=O	.00
COC1=CC(=C(c2cc3c4c(c2)CCCN4CCC3)c2ccccc2S(=O)(=O)N(C)C(=O)OCCS(C)(=O)=O)C=C(OC)C1=O	.21
CC1=CC(=C(c2cc(C)c(O)c(C)c2)c2ccccc2S(=O)(=O)N(C)C(=O)OCCS(C)(=O)=O)C=C(C)C1=O	.00
COCC(=O)OCc1ccccc1C(=C1C=C(OC)C(=O)C(OC)=C1)c1cc(OC)c(O)c(OC)c1	.01

----------
# PROCEDURE_SUMMARY: transmission densities of image-receiving components before and after bleaching with aqueous 1 N KOH
# Type: physicochemical
# CONDITION_SET: 22 mgs./ft.^2; 1 N KOH, after 15 to 60 seconds
ENDPOINT_NAME: Transmission density After Bleaching G

COMPOUND	ENDPOINT_NAME	RESULT
COCC(=O)OCc1ccccc1C(=C1C=C(OC)C(=O)C(OC)=C1)c1cc(OC)c(O)c(OC)c1 [Example 39]	Transmission density After Bleaching G	.00
COC1=CC(=C(c2ccc(N3CCOCC3)cc2)c2ccccc2S(=O)(=O)N(C)C(=O)OCCS(C)(=O)=O)C=C(OC)C1=O [Example 12]	Transmission density After Bleaching G	.01
CC1=CC(=C(c2cc(C)c(O)c(C)c2)c2ccccc2S(=O)(=O)N(C)C(=O)OCCS(C)(=O)=O)C=C(C)C1=O [Example 24]	Transmission density After Bleaching G	.00
COC1=CC(=C(c2cc3c4c(c2)CCCN4CCC3)c2ccccc2S(=O)(=O)N(C)C(=O)OCCS(C)(=O)=O)C=C(OC)C1=O [Example 13]	Transmission density After Bleaching G	.01

----------
# PROCEDURE_SUMMARY: transmission densities of image-receiving components before and after bleaching with aqueous 1 N KOH
# Type: physicochemical
# CONDITION_SET: 22 mgs./ft.^2

COMPOUND	Transmission density Before Bleaching G
COC1=CC(=C(c2ccc(N3CCOCC3)cc2)c2ccccc2S(=O)(=O)N(C)C(=O)OCCS(C)(=O)=O)C=C(OC)C1=O [Example 12]	.31
COCC(=O)OCc1ccccc1C(=C1C=C(OC)C(=O)C(OC)=C1)c1cc(OC)c(O)c(OC)c1 [Example 39]	.03
CC1=CC(=C(c2cc(C)c(O)c(C)c2)c2ccccc2S(=O)(=O)N(C)C(=O)OCCS(C)(=O)=O)C=C(C)C1=O [Example 24]	.00
COC1=CC(=C(c2cc3c4c(c2)CCCN4CCC3)c2ccccc2S(=O)(=O)N(C)C(=O)OCCS(C)(=O)=O)C=C(OC)C1=O [Example 13]	.32

----------
# PROCEDURE_SUMMARY: transmission densities of image-receiving components before and after bleaching with aqueous 1 N KOH
# Assay type: physicochemical
# CONDITION_SET: 22 mgs./ft.^2

SAMPLE_SMILES	Transmission density Before Bleaching B
CC1=CC(=C(c2cc(C)c(O)c(C)c2)c2ccccc2S(=O)(=O)N(C)C(=O)OCCS(C)(=O)=O)C=C(C)C1=O	.40
COC1=CC(=C(c2ccc(N3CCOCC3)cc2)c2ccccc2S(=O)(=O)N(C)C(=O)OCCS(C)(=O)=O)C=C(OC)C1=O	.45
COC1=CC(=C(c2cc3c4c(c2)CCCN4CCC3)c2ccccc2S(=O)(=O)N(C)C(=O)OCCS(C)(=O)=O)C=C(OC)C1=O	.09
COCC(=O)OCc1ccccc1C(=C1C=C(OC)C(=O)C(OC)=C1)c1cc(OC)c(O)c(OC)c1	.59

----------
# PROCEDURE_SUMMARY: transmission densities of image-receiving components before and after bleaching with aqueous 1 N KOH
# Assay type: physicochemical
# CONDITION_SET: 22 mgs./ft.^2; 1 N KOH, after 15 to 60 seconds
ENDPOINT_NAME: Transmission density After Bleaching R

SAMPLE_SMILES	RESULT
COCC(=O)OCc1ccccc1C(=C1C=C(OC)C(=O)C(OC)=C1)c1cc(OC)c(O)c(OC)c1	.00
COC1=CC(=C(c2ccc(N3CCOCC3)cc2)c2ccccc2S(=O)(=O)N(C)C(=O)OCCS(C)(=O)=O)C=C(OC)C1=O	.02
CC1=CC(=C(c2cc(C)c(O)c(C)c2)c2ccccc2S(=O)(=O)N(C)C(=O)OCCS(C)(=O)=O)C=C(C)C1=O	.01
COC1=CC(=C(c2cc3c4c(c2)CCCN4CCC3)c2ccccc2S(=O)(=O)N(C)C(=O)OCCS(C)(=O)=O)C=C(OC)C1=O	.01

Data credit: patent US4304833A
